biological target: human M1 receptor (hCHRM1) (Homo sapiens); assay: Measurement of M1 receptor positive allosteric modulator (M1PAM) activity (calcium fluorescence, Fluo-4, FDSS); conditions: inflection point of concentration-dependent curve; CHO-K1 cells stably expressing hCHRM1; in presence of acetylcholine at EC20 concentration (final 0.8 nM); read-out: IP value
Sequence (P11229 whole entry): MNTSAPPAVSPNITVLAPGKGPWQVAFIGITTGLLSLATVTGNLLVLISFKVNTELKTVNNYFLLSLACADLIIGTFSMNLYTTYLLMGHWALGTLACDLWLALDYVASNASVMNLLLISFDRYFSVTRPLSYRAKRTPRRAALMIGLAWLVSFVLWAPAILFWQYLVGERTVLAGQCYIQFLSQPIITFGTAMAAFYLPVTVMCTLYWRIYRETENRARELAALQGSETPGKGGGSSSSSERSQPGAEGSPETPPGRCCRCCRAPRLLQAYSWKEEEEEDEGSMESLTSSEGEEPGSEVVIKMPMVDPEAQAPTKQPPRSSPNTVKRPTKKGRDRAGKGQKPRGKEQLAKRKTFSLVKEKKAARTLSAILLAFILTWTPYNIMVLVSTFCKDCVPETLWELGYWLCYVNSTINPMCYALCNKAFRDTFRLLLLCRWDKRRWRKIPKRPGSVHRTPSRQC
MEASURED_PARAMETER: EC50 (nM)

{"COMPOUND": "Cc1c(Cc2ccc(-c3cnn(C)c3)nc2)cc2c(=O)n([C@H]3CCCC[C@@H]3O)cnc2c1C", "UNITS_TEXT": "nM", "EC50": 4.8}
{"COMPOUND": "Cc1c(Cc2ccc(-c3ccn(C)n3)cc2)cc2c(=O)n([C@H]3COCC[C@@H]3O)nnc2c1C (relative stereo) [Example 46]", "UNITS_TEXT": "nM", "EC50": 32}
{"COMPOUND": "Cc1c(Cc2ccc(-n3cccn3)cc2)cc2c(=O)n([C@H]3COCC[C@@H]3O)cnc2c1C (relative stereo) [Example 3]", "UNITS_TEXT": "nM", "EC50": 15}
{"COMPOUND": "Cc1c(Cc2ccc(Cl)nc2)cc2c(=O)n([C@H]3CCCC[C@@H]3O)cnc2c1C [Example 54]", "UNITS_TEXT": "nM", "EC50": 23}
{"COMPOUND": "Cc1c(Cc2ccc(-c3cnn(C)c3)nc2)cc2c(=O)n([C@H]3CCC[C@@H]3O)cnc2c1C (single isomer, unassigned) [Example 50]", "UNITS_TEXT": "nM", "EC50": 6.5}

a = Cc1c(Cc2ccc(-n3cccn3)cc2)cc2c(=O)n([C@H]3COCC[C@@H]3O)cnc2c1C (single isomer, unassigned) [Example 52]
b = Cc1c(Cc2ccc(-n3cccn3)cc2)cc2c(=O)n([C@H]3CCC[C@@H]3O)cnc2c1C (relative stereo)
Inquiry: Among a and b , which shows a numerically higher EC50 result? Refer to your chosen item by its label in the answer.
Reply text: b
